Provenance of the data: PubChem BioAssay

test.system: Follistatin-related protein 3 (Homo sapiens) (UniProt O95633)
Sequence (O95633 whole entry, looked up): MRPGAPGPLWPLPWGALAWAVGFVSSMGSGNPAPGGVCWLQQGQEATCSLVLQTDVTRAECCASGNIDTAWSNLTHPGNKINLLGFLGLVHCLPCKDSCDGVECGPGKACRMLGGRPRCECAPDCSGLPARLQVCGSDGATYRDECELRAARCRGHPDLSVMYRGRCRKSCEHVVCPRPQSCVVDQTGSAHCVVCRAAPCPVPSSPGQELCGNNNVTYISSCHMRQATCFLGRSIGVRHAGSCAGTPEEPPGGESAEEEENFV
protocol.notes: FSTL3 binders on small-molecule microarrays, primary screen, biochemical, small-molecule microarray, 635 nm fluorescence (AID 1105);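 further: score merges emission near 667 nm and signal to noise per printed spot across three slides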
measurement.setup: FSTL3 binding, higher = more signal
As shown below, each of these compounds has a reported composite z-score value.
Please reply with the number alone, leaving off any unit.

Field: example entries. Status: answers known.
NC(=O)NCC#Cc1ccc2c(c1)[C@]1(C(=O)N2)[C@H](c2ccc(O)cc2)N2[C@H](c3ccccc3)[C@H](c3ccccc3)OC(=O)[C@H]2[C@@H]1C(=O)N1CCCCCCC1
1.28
CC(CCC(=O)OC[C@H]1O[C@H](C#Cc2ccccc2)C=C[C@@H]1Oc1ccc(C)cc1)=NO[C@@H](C)c1cn([C@H](CO)Cc2ccccc2)nn1
0.28
CC(C)N1CC=CC23O[C@@H]4C=CCCOC(=O)C4[C@H]2C(=O)N(CCCCCCO)[C@@H]3C1=O (stereo partly specified)
-1.22
CCCNC(=O)OC[C@H]1O[C@H](CCON=C2[C@H]3CCn4c(=O)n(-c5ccccc5)c(=O)n4[C@H]3[C@H](O)[C@@H]3O[C@H]23)C=C[C@@H]1Oc1ccc(OC)cc1
0.493
CC[C@@H](c1ccccc1)n1c(=O)n2n(c1=O)[C@H]1[C@H](O)[C@@H]3O[C@@H]3C(=NOCC=C(C)CCC=C(C)C)[C@H]1CC2
1.27

// next entry
Prompt: Value lookup for composite z-score; key = COC(=O)[C@H](C)NC(=O)CCC1CC(OC(=O)NCCc2ccc(F)cc2)CC2(CCCC(COC(=O)NCC(c3ccccc3)c3ccccc3)O2)O1 (stereo partly specified)
Response: 0.691

###

protocol.notes: P. aeruginosa biofilm formation inhibitors, primary screen, PAO1 strain, BacTiter-Glo luminescence, LB-PBS (AID 1144)
measurement.setup: 12 h, higher = more signal
If the reported z-score equals or exceeds -0.8, assign met. If not, assign not met.

Prompt: Entry O=C1NC(=O)C2C1C=CC(C(O)Cc1ccccc1)N2Nc1ccccn1 (centres undefined) : is its z-score no less than -0.8?
Response: met

Prompt: Entry COC(=O)C1(C)C=C2C(=C(c3ccccc3)C(=O)C2C)CN1 (centres undefined) : is its z-score no less than -0.8?
Response: met

Prompt: Entry `C=CCN1C(=O)[C@]2(O[C@H](CCn3cc(CCO)nn3)[C@@H]([Si](C)(C)c3ccc(OC)cc3)[C@@H]2C)c2cc(N3CCOC3=O)ccc21` : is its z-score no less than -0.8?
Response: met

Prompt: Entry `CC(C)NC(=O)[C@@H]1c2ccccc2C(=O)N(CC23CC4CC(CC(C4)C2)C3)[C@H]1c1ccc(CO)cc1` : is its z-score no less than -0.8?
Response: not met

Prompt: Entry `O=C1[C@H]2[C@H]3[C@H](O)[C@H](O)CC(=NOCc4ccccc4)[C@H]3CC[C@H]2C(=O)N1c1cccc(Oc2ccccc2)c1` : is its z-score no less than -0.8?
Response: met

Prompt: Entry CCOC(=O)[C@H](Cc1ccccc1)NC(=O)CCC1CC(OC(=O)NCc2ccc3c(c2)OCO3)CC2(CCCC(COC(=O)NCC(c3ccccc3)c3ccccc3)O2)O1 (some centres undefined) : is its z-score no less than -0.8?
Response: not met

###

protocol.notes: E. coli DRC41 culture turbidity changes, primary screen, E. coli filamentation inducer project, strain DRC41, OD650, 48 h (AID 1152);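 further: E. coli MC1000 strain DRC41 lacking acrAB efflux pump and sulA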
measurement.setup: E. coli DRC41 (acrAB sulA), higher = more signal, called active from +8 up or from −8 down
If the reported z-score equals or exceeds 0.2, assign true (1). If not, assign false (0).

Before answering, review these 3 worked examples.
CCOC(=O)CCN1C(=O)[C@H]2[C@H]3[C@H](O)C=CC(=O)[C@@H]3CC[C@H]2C1=O
false (0)
CCOC(=O)CCN1C(=O)[C@H]2[C@H]3[C@H](O)[C@H](O)CC(=NOC[C@@H](O)COCc4ccco4)[C@@H]3CC[C@H]2C1=O
true (1)
CCOC(=O)NN=C1C[C@@H](O)[C@@H](O)[C@@H]2[C@@H]3C(=O)N(CC)C(=O)[C@@H]3CC[C@@H]12
false (0)

Prompt: Entry `CO[C@@H]1COC(=O)CC=C[C@@H](C)[C@H](OC)COC(=O)[C@H](COCc2ccccc2)NC(=O)CC=C[C@H]1C` : is its z-score no less than 0.2?
Response: false (0)

Prompt: Entry `O=C1C[C@@H](O)[C@@H](O)[C@@H]2[C@@H]3C(=O)N(c4ccc(F)cc4F)C(=O)[C@@H]3CC[C@@H]12` : is its z-score no less than 0.2?
Response: false (0)

Prompt: Entry `COc1ccc(COC(=O)NN=C2C[C@@H](O)[C@@H](O)[C@@H]3[C@@H]4C(=O)N(Cc5ccc6c(c5)OCO6)C(=O)[C@@H]4CC[C@@H]23)cc1` : is its z-score no less than 0.2?
Response: true (1)

Prompt: Entry COc1ccc(O[C@H]2C=C[C@@H](c3ccccc3)O[C@@H]2COC(=O)CCC(C)=NOC(C)CN2CCCCc3nc(C)c(C)cc32)cc1 (stereo partly specified) : is its z-score no less than 0.2?
Response: true (1)

Prompt: Entry `COC(=O)[C@@]1(Cc2ccc(F)cc2)[C@H]2c3cc(C(=O)N(C)C)n(Cc4ccc(OC)c(OC)c4)c3C[C@H]2CN1C(=O)c1ccccc1` : is its z-score no less than 0.2?
Response: false (0)

Prompt: Entry c1ccc(C2NCCc3c2[nH]c2ccccc32)cc1 (stereo unspecified) : is its z-score no less than 0.2?
Response: false (0)

Prompt: Entry CC(CCN1CCc2nc(-c3ccccc3)c(-c3ccccc3)cc2C1)=NOC(C)CN1CCCCc2nc(C)c(C)cc21 (stereo unspecified) : is its z-score no less than 0.2?
Response: false (0)

Prompt: Entry `COCCOC(=O)N1C(=O)[C@@]2(c3cc(C#CC4(O)CCCCCC4)ccc31)[C@H](c1ccc(OCCO)cc1)N1[C@H](c3ccccc3)[C@H](c3ccccc3)OC(=O)[C@H]1[C@@H]2C(=O)NC[C@H](O)c1ccccc1` : is its z-score no less than 0.2?
Response: true (1)

Prompt: Entry `COc1ccc(CCNC(=O)[C@@H]2c3ccccc3C(=O)N(c3ccc(C)cn3)[C@H]2c2ccc(CO)cc2)cc1` : is its z-score no less than 0.2?
Response: false (0)

Prompt: Entry `C[N+](C)(C)CCCCCCNC(=O)[C@@H]1C[C@@H]2C(=O)N3CCC[C@H]3C(=O)N2[C@@H]1c1cccc(OCCO)c1` : is its z-score no less than 0.2?
Response: true (1)

Prompt: Entry `O=C(NN=C1C[C@@H](O)[C@@H](O)[C@@H]2[C@@H]3C(=O)N(c4ccc(F)cc4F)C(=O)[C@@H]3CC[C@@H]12)OCc1ccccc1` : is its z-score no less than 0.2?
Response: false (0)

###

protocol.notes: HepG2 cell viability effects, profiling panel, calcein-AM fluorescence, 48 h, basal (AID 1164); further: test concentration not given here
measurement.setup: higher = more signal
experimental.readout: z-score
Please reply with the number alone, leaving off any unit.

Field: example entries. Status: answers known.
CN1C(=O)[C@@]2(CCC(=O)OC(C)(C)C)N=C(c3ccc(OCCCO)cc3)O[C@H]2c2ccccc21
-0.614
CCOc1ccc(N2C(=O)/C(=C/C=C/c3ccccc3OC)S(=O)(=O)C2c2cccc([N+](=O)[O-])c2)cc1 (stereo not given)
0.136
CC(C)N1CC=CC23O[C@@H]4C=CCCOC(=O)C4[C@H]2C(=O)N(CCCCCCO)[C@@H]3C1=O (stereo not given in full)
0.677

Prompt: Value lookup for z-score; key = `CO[C@@H]1COC(=O)CC=C[C@@H](C)[C@@H]2C=C[C@H](O)[C@@H](COC(=O)[C@H](C)NC(=O)CC=C[C@H]1C)O2`
Response: -0.857

Prompt: Value lookup for z-score; key = `COc1ccc([Si](C)(C)[C@@H]2[C@@H](CCO)O[C@]3(C(=O)N(Cc4ccc(NC(C)=O)cc4)c4ccccc43)[C@H]2C)cc1`
Response: -2.77

Prompt: Value lookup for z-score; key = COC(=O)[C@H](C)NC(=O)CCC1CC(OC(=O)NCc2cccc3ccccc23)CC2(CCCC(COC(=O)NCC3CCCCC3)O2)O1 (stereo not given in full)
Response: 0.385

Prompt: Value lookup for z-score; key = `CCOC(=O)NN=C1C[C@@H](O)[C@@H](O)[C@@H]2[C@@H]3C(=O)N(C4CCCCC4)C(=O)[C@@H]3CC[C@H]12`
Response: 0.31

Prompt: Value lookup for z-score; key = CN(C)c1ccc(C(O)C2C=CC3C(=O)N(c4ccccc4)C(=O)C3N2Nc2ccccc2F)cc1 (stereo not given)
Response: -0.799

Prompt: Value lookup for z-score; key = `COC(=O)[C@@]1(Cc2ccccc2)[C@H]2c3cc(C(=O)N4CCCC4)n(Cc4ccccn4)c3C[C@H]2CN1C(=O)c1ccccc1`
Response: -0.924

Prompt: Value lookup for z-score; key = `CC(C)=CCCC(C)=CCON=C1[C@H]2CCn3c(=O)n(Cc4cc5c(cc4Cl)OCO5)c(=O)n3[C@H]2[C@H](O)[C@@H]2O[C@H]12`
Response: 0.42

Prompt: Value lookup for z-score; key = `COc1ccc(O[C@H]2C=C[C@@H](c3ccccc3)O[C@@H]2CON=C[C@@H](C)[C@H](OCc2ccccc2)C(C)C)cc1`
Response: 1.7

Prompt: Value lookup for z-score; key = `Cc1ccc(S(=O)(=O)N[C@@H]2COC(=O)[C@H](C)COC(=O)CC=C[C@H]2C)cc1`
Response: 0.53

Prompt: Value lookup for z-score; key = `C[C@@H]1C=CCC(=O)OC[C@H](C)C(=O)N2CCC[C@H]2C(=O)OC1`
Response: -0.492

Prompt: Value lookup for z-score; key = `O=C1[C@H]2[C@H]3[C@H](O)[C@H](O)CC(=NO[C@@H]4O[C@H](CO)[C@@H](O)[C@H](O)[C@H]4O)[C@H]3CC[C@H]2C(=O)N1Cc1ccccc1`
Response: -0.571

Prompt: Value lookup for z-score; key = CCOC(=O)[C@H](Cc1ccccc1)NC(=O)CCC1CC(OC(=O)NCc2ccc3c(c2)OCO3)CC2(CCCC(COC(=O)NCC3CCCCC3)O2)O1 (stereo not given in full)
Response: -0.264
